test system: IL-6; assay: IL-6 inhibition in LPS-stimulated THP-1 cells (HTRF); format: cell-based; settings: Homo sapiens, THP-1; read-out: percent inhibition at 10 μM
Catalogue of inhibition at 10 µM readings, one per entry.
Readout Type: inhibition at 10 µM (%)

>  <Compound>
Fc1cccc(-c2cncc3[nH]c(-c4n[nH]c5ncc(-c6cncc(CN7CCCCC7)c6)cc45)cc23)c1 [Compound 15]

>  <Readout Type>
inhibition at 10 µM

>  <Quantitative Readout>
41

$$$$
>  <Compound>
CCNCc1cncc(-c2cnc3[nH]nc(-c4cc5c(-c6cc(F)cc(CNS(C)(=O)=O)c6)cncc5[nH]4)c3c2)c1 [Compound 482]

>  <Readout Type>
inhibition at 10 µM

>  <Quantitative Readout>
47.9

$$$$
>  <Compound>
CN(C)CCOc1cncc(-c2cnc3[nH]nc(-c4cc5c(-c6ccc(F)cc6)cncc5[nH]4)c3c2)c1 [Compound 531]

>  <Readout Type>
inhibition at 10 µM

>  <Quantitative Readout>
22.9

$$$$
>  <Compound>
CN(C)Cc1cncc(-c2cnc3[nH]nc(-c4cc5c(-c6ccoc6)cncc5[nH]4)c3c2)c1 [Compound 321]

>  <Readout Type>
inhibition at 10 µM

>  <Quantitative Readout>
29.2

$$$$
>  <Compound>
O=C(Nc1cncc(-c2cnc3[nH]nc(-c4cc5c(-c6ccccc6F)cncc5[nH]4)c3c2)c1)C1CC1 [Compound 76]

>  <Readout Type>
inhibition at 10 µM

>  <Quantitative Readout>
22

$$$$
>  <Compound>
c1ncc(-c2cnc3[nH]nc(-c4cc5c(N6CCCCC6)cncc5[nH]4)c3c2)cc1CN1CCCCC1 [Compound 183]

>  <Readout Type>
inhibition at 10 µM

>  <Quantitative Readout>
20.3

$$$$
>  <Compound>
CS(=O)(=O)NCc1cc(F)cc(-c2cncc3[nH]c(-c4n[nH]c5ncc(-c6cncc(NC(=O)C7CCCCC7)c6)cc45)cc23)c1 [Compound 499]

>  <Readout Type>
inhibition at 10 µM

>  <Quantitative Readout>
32.4

$$$$
>  <Compound>
CCC(=O)Nc1cncc(-c2cnc3[nH]nc(-c4cc5c(-c6cccnc6)cncc5[nH]4)c3c2)c1 [Compound 85]

>  <Readout Type>
inhibition at 10 µM

>  <Quantitative Readout>
34.1

$$$$
>  <Compound>
Fc1ccc(-c2cncc3[nH]c(-c4n[nH]c5ncc(-c6cncc(OC7CCCCC7)c6)cc45)cc23)cc1 [Compound 527]

>  <Readout Type>
inhibition at 10 µM

>  <Quantitative Readout>
21.7

$$$$
>  <Compound>
O=C(Nc1cncc(-c2cnc3[nH]nc(-c4cc5c(-c6cccc(F)c6)cncc5[nH]4)c3c2)c1)c1ccccc1 [Compound 11]

>  <Readout Type>
inhibition at 10 µM

>  <Quantitative Readout>
20.2

$$$$
>  <Compound>
O=C(Nc1cncc(-c2cnc3[nH]nc(-c4cc5c(-c6cccnc6)cncc5[nH]4)c3c2)c1)c1ccccc1 [Compound 95]

>  <Readout Type>
inhibition at 10 µM

>  <Quantitative Readout>
46.5

$$$$

---

test system: primary human mesenchymal stem cells (hMSCs); experiment: Induction of chondrogenesis in hMSCs (nodule count); format: cell-based; settings: 6 days, concentration required to induce 50% levels of chondrogenesis vs TGF-β3, read-out: Conc (nM) of 50% TGF-β3 activity

>  <Compound>
CN(C)Cc1cncc(-c2cnc3[nH]nc(-c4cc5c(-c6ccccc6F)cncc5[nH]4)c3c2)c1 [Compound 69]

>  <Experimental Target>
primary human mesenchymal stem cells (hMSCs)

>  <EC50 / nM>
30

$$$$
>  <Compound>
CC(C)Nc1cncc(-c2cnc3[nH]nc(-c4cc5c(-c6cccc(F)c6)cncc5[nH]4)c3c2)c1 [Compound 12]

>  <Experimental Target>
primary human mesenchymal stem cells (hMSCs)

>  <EC50 / nM>
900

$$$$
>  <Compound>
CC(C)C(=O)Nc1cncc(-c2cnc3[nH]nc(-c4cc5c(-c6cc(F)cc(CNS(C)(=O)=O)c6)cncc5[nH]4)c3c2)c1 [Compound 485]

>  <Experimental Target>
primary human mesenchymal stem cells (hMSCs)

>  <EC50 / nM>
30

$$$$
>  <Compound>
CN(C)c1cncc(-c2cnc3[nH]nc(-c4cc5c(-c6ccncc6)cncc5[nH]4)c3c2)c1 [Compound 119]

>  <Experimental Target>
primary human mesenchymal stem cells (hMSCs)

>  <EC50 / nM>
10

$$$$
>  <Compound>
O=C(Nc1cncc(-c2cnc3[nH]nc(-c4cc5c(-c6cccnc6)cncc5[nH]4)c3c2)c1)c1ccccc1 [Compound 95]

>  <Experimental Target>
primary human mesenchymal stem cells (hMSCs)

>  <EC50 / nM>
100

$$$$

---

system: IL-6; experiment: IL-6 inhibition in LPS-stimulated THP-1 cells (HTRF); type: cell-based; conditions: Homo sapiens; THP-1 cells, LPS 500 ng/mL, 22 hours, IL6 HTRF
pEC50: −log10 of the molar value.
Catalogue of pEC50 readings, one per entry.

>  <Compound Smiles>
O=C(CC1CCNCC1)Nc1cncc(-c2cnc3[nH]nc(-c4cc5c(-c6cccnc6)cncc5[nH]4)c3c2)c1

>  <Experimental Target>
IL-6

>  <pEC50>
< 5.00

$$$$
>  <Compound Smiles>
c1ccc(-c2cnc3[nH]nc(-c4cc5c(-c6cccnc6)cncc5[nH]4)c3c2)nc1

>  <Experimental Target>
IL-6

>  <pEC50>
< 5.00

$$$$
>  <Compound Smiles>
Cc1ncc(-c2cnc3[nH]nc(-c4cc5c(-c6ccncc6)cncc5[nH]4)c3c2)n1C

>  <Experimental Target>
IL-6

>  <pEC50>
< 5.00

$$$$
>  <Compound Smiles>
O=C(Nc1cncc(-c2cnc3[nH]nc(-c4cc5c(-c6ccncc6)cncc5[nH]4)c3c2)c1)C1CCCC1

>  <Experimental Target>
IL-6

>  <pEC50>
< 5.00

$$$$
